// values below are reported CC50
Assay: Cytotoxicity against MDBK cells assessed as cell viability by MTT assay
Format: cell-based, Bos taurus
Conditions: cattle
Form entry: value (µM) — number only.

compound="CC1CC(OCCCCCCN2C[C@H](O)[C@@H](O)[C@H](O)[C@H]2CO)CC(C)(C)C1 (stereo not given in full)" reported_endpoint=CC50 uom=µM reported=250

// returns reported CC50 for input OC[C@@H]1[C@@H](O)[C@H](O)[C@@H](O)CN1CCCc1ccc(OC2CCCCC2)cc1
295

====

Experiment: Cytotoxicity against MDBK cells assessed as cell viability by MTT assay
Type: cell-based, Bos taurus
Conditions: cattle
// values below are reported CC50

chem_smiles=CCCCCC#CCCN1C[C@H](O)[C@@H](O)[C@H](O)[C@H]1CO reported_endpoint=CC50 reported="> 500 µM"
chem_smiles=OC[C@@H]1[C@@H](O)[C@H](O)[C@@H](O)CN1CCCCCCOC1CCCC1 reported_endpoint=CC50 reported="> 500 µM"
chem_smiles=CCCOc1ccc(CCCN2C[C@H](O)[C@@H](O)[C@H](O)[C@H]2CO)cc1 reported_endpoint=CC50 reported="> 500 µM"

// returns reported CC50 for input OC[C@@H]1[C@@H](O)[C@H](O)[C@@H](O)CN1CCCc1cccc(OC2CCCCC2)c1
390 µM

Now give it for OC[C@@H]1[C@@H](O)[C@H](O)[C@@H](O)CN1CCCCCCOC1CCCCCC1 too.
> 500 µM

Now give it for OC[C@@H]1[C@@H](O)[C@H](O)[C@@H](O)CN1CCCCCCOc1cc(Cl)ccc1Cl too.
320 µM

Now give it for OC[C@@H]1[C@@H](O)[C@H](O)[C@@H](O)CN1CCCCCCOc1cccc(C(F)(F)F)c1 too.
> 500 µM

Now give it for OC[C@@H]1[C@@H](O)[C@H](O)[C@@H](O)CN1CCCCCCOC1CCCCC1 too.
480 µM

Now give it for OC[C@@H]1[C@@H](O)[C@H](O)[C@@H](O)CN1CCCCCCOc1ccccc1C(F)(F)F too.
> 500 µM

====

Tested on: dengue virus type 2
Test: Antiviral activity against 0.01 MOI DENV-2 NGC infected in BHK cells assessed as reduction in viral titer after 48 hrs
Type: functional, organism-based
Assign labels as follows, please: true for EC50 below 2000 nM; false for EC50 equal to or exceeding 2000 nM.

Example entries begin here.
compound=OC[C@@H]1[C@@H](O)[C@H](O)[C@@H](O)CN1CCCCCCOC1CCCCC1 group_label=true
compound=OC[C@@H]1[C@@H](O)[C@H](O)[C@@H](O)CN1CCCCCCOc1ccc(OC(F)(F)F)cc1 group_label=true
compound=OC[C@@H]1[C@@H](O)[C@H](O)[C@@H](O)CN1CC/C=C/CCOc1cc(F)ccc1F group_label=false
compound="CC1CCC(OCCCCCCN2C[C@H](O)[C@@H](O)[C@H](O)[C@H]2CO)CC1C (stereo partly specified)" group_label=true

In the following, a different compound is considered.
API: query returns whether the compound falls strictly under 2000 nM in EC50. Query: OC[C@@H]1[C@@H](O)[C@H](O)[C@@H](O)CN1CCCCCCOc1cccc(F)c1
true

====

Molecular target: CYP3A4 (Homo sapiens, UniProt P08684)
Sequence (P08684 whole entry): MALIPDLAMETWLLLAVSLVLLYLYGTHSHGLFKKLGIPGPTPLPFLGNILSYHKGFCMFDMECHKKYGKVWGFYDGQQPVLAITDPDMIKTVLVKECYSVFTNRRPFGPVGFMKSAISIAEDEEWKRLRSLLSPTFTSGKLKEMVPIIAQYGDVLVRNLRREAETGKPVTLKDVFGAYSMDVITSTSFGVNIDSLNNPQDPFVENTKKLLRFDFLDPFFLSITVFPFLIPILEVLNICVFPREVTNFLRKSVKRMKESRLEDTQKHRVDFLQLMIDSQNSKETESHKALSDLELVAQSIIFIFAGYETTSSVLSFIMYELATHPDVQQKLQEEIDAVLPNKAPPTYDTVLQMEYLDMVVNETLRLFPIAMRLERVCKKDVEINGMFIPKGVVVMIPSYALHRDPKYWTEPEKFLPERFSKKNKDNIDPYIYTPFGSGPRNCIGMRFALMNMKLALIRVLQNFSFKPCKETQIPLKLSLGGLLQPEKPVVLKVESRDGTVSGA
Test: Inhibition of human CYP3A4 using midazolam as substrate at 10 uM
Format: ADME
Conditions: probe midazolam
reported-endpoint: inhibition at 10 µM (%)
Form entry: value (%) — number only.

Study these solved cases before continuing.
chem_smiles=CCC(O)(CC)CCCCCCN1C[C@H](O)[C@@H](O)[C@H](O)[C@H]1CO reported=21
chem_smiles=CCCC(CCC)OCCCCCCN1C[C@H](O)[C@@H](O)[C@H](O)[C@H]1CO reported=2.5
chem_smiles=CCCOc1cccc(CCCN2C[C@H](O)[C@@H](O)[C@H](O)[C@H]2CO)c1 reported=8.6
chem_smiles=OC[C@@H]1[C@@H](O)[C@H](O)[C@@H](O)CN1CCCCCCOC1CCCCCC1 reported=21.2

--- query ---
// returns reported inhibition at 10 µM for input COc1ccccc1OCCCCCCN1C[C@H](O)[C@@H](O)[C@H](O)[C@H]1CO
12.1
